System: C. albicans R303
Assay: Mouse candidiasis infection model, C. albicans density in kidneys
Type: in vivo, female CD-1 mice
Conditions: First run, 1 mg/kg IP 2 hr after infection, kidneys at 24 hr, neutropenic mice
Starred links: 1 amine or outer side, 2 acyl side, 3 side chain; linkers in the order of their positions; H or OH if unused. Positions of bridges follow the written chain, without caps; N, C: chain ends. Non-standard residues stand in square brackets, D forms with d. Residues, ends and D or L forms follow the SMILES beside them. *: point of attachment. pTerphenylCO(4''-OnC5H11) = CCCCCOc1ccc(-c2ccc(-c3ccc(C(=O)*)cc3)cc2)cc1; Orn(4R-OH,5R-OH) = O=C([C@H](C[C@@H](O)[C@@H](O)N[*:3])N[*:1])[*:2]; hTyr(3S-OH,4S-OH) = N[C@H](C(=O)O)[C@H](O)[C@@H](O)c1ccc(O)cc1; Pro(3S-OH,4S-Me) = C[C@H]1CN[C@H](C(=O)O)[C@H]1O; Hyp = O=C(O)[C@@H]1C[C@@H](O)CN1
Record form. Attribute: Mean log10 CFU/kidneys (±SD). Fill in for each entry.
Answers are plain numbers, in log10 CFU/kidneys.

CCC(C)CC(C)CCCCCCCCC(=O)NC1CC(O)C(NCCNC(=O)OCCOC)NC(=O)C2C(O)CCN2C(=O)C(C(O)CCNC(=O)OCCOC)NC(=O)C(C(O)C(O)c2ccc(O)cc2)NC(=O)C2CC(O)CN2C(=O)C(C(C)O)NC1=O (stereo not shown) ... 5.10
CCC(C)CC(C)CCCCCCCCC(=O)NC1CC(O)C(NCCNC(=O)OCCOC)NC(=O)C2C(O)CCN2C(=O)C(C(O)CCN)NC(=O)C(C(O)C(O)c2ccc(O)cc2)NC(=O)C2CC(O)CN2C(=O)C(C(C)O)NC1=O (stereo not shown) ... 4.65
CCCCCOc1ccc(-c2ccc(-c3ccc(C(=O)N[C@H]4C[C@@H](O)[C@@H](O)NC(=O)[C@@H]5[C@@H](O)[C@@H](C)CN5C(=O)[C@H]([C@@H](C)O)NC(=O)[C@H]([C@H](O)[C@@H](O)c5ccc(O)cc5)NC(=O)[C@@H]5C[C@@H](O)CN5C(=O)[C@H]([C@@H](C)O)NC4=O)cc3)cc2)cc1 [Anidulafungin, anidulafungin, reference compound] ({pTerphenylCO(4''-OnC5H11)}-[Orn(4R-OH,5R-OH)]T[Hyp][hTyr(3S-OH,4S-OH)]T[Pro(3S-OH,4S-Me)]; lactam 1-C) ... 3.09
CCC(C)CC(C)CCCCCCCCC(=O)NC1CC(O)C(NCCNC(=O)CCCCCCCOCCOCCOCCOCCOCCOCCOCCOC)NC(=O)C2C(O)CCN2C(=O)C(C(O)CCNC(=O)CCCCCCCOCCOCCOCCOCCOCCOCCOCCOC)NC(=O)C(C(O)C(O)c2ccc(O)cc2)NC(=O)C2CC(O)CN2C(=O)C(C(C)O)NC1=O (stereo not shown) ... 5.25

Go through the items and report each one's Mean log10 CFU/kidneys (±SD).
1. CC[C@H](C)C[C@H](C)CCCCCCCCC(=O)N[C@H]1C[C@@H](O)[C@@H](NCCN)NC(=O)[C@@H]2[C@@H](O)CCN2C(=O)[C@H]([C@H](O)CCN)NC(=O)[C@H]([C@H](O)[C@@H](O)c2ccc(O)cc2)NC(=O)[C@@H]2C[C@@H](O)CN2C(=O)[C@H]([C@@H](C)O)NC1=O [Caspofungin, caspofungin, reference compound]
2. CCCCCOc1ccc(-c2ccc(-c3ccc(C(=O)NC4CC(O)C(OCCCCCCOCCOCCOCCOCCOCCOCCOCCOC)NC(=O)C5C(O)C(C)CN5C(=O)C(C(C)O)NC(=O)C(C(O)C(O)c5ccc(O)cc5)NC(=O)C5CC(O)CN5C(=O)C(C(C)O)NC4=O)cc3)cc2)cc1 (stereo not shown)
3. CCCCCOc1ccc(-c2ccc(-c3ccc(C(=O)NC4CC(O)C(OCCOCCOCCOCCOC)NC(=O)C5C(O)C(C)CN5C(=O)C(C(C)O)NC(=O)C(C(O)C(O)c5ccc(O)cc5)NC(=O)C5CC(O)CN5C(=O)C(C(C)O)NC4=O)cc3)cc2)cc1 (stereo not shown)

Return:
[1.63, 5.27, 4.77]
